Assayed system: Epidermal growth factor receptor (Homo sapiens, UniProt P00533)
Sequence (P00533 whole entry): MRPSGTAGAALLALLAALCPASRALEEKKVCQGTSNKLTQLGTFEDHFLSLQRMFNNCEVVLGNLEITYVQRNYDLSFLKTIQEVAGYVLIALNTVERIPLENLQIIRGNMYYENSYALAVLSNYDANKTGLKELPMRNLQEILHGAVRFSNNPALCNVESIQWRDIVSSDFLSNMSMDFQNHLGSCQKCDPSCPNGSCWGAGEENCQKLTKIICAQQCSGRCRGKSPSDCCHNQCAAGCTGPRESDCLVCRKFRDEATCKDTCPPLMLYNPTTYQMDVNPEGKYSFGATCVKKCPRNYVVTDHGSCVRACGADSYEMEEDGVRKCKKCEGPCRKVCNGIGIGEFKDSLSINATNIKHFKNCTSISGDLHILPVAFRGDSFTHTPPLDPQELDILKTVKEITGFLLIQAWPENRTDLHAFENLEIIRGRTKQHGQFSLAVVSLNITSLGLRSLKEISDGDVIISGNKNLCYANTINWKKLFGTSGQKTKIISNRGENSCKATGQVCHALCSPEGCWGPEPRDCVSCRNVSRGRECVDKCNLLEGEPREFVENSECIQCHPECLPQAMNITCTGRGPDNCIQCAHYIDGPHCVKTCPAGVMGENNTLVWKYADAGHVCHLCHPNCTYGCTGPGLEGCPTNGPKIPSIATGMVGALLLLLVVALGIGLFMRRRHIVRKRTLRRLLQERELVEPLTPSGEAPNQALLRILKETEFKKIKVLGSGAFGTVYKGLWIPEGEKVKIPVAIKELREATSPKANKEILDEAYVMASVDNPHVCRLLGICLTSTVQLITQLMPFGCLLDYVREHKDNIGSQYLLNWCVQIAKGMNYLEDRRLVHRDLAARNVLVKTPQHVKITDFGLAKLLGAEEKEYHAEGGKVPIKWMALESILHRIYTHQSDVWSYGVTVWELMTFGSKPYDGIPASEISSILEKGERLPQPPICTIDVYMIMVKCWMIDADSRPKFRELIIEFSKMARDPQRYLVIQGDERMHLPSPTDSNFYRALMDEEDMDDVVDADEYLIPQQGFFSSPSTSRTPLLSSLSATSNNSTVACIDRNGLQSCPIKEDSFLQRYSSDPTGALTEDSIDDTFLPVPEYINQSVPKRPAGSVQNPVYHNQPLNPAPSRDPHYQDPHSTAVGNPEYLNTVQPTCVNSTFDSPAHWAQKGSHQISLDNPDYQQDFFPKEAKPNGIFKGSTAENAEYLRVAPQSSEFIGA
Experiment notes: Inhibition of EGFR (unknown origin) using Poly(Glu:Tyr) 4:1 as substrate after 12 to 16 hrs
Quantity name: IC50 (µM)
Could you give me the number in µM? Just the number is fine.

OCCN1CCN(Cc2ccc(-c3cc4c(N[C@H](CO)c5ccccc5)ncnc4s3)cc2)CC1	0.6

Next compound, please.
# input compound: `OC[C@@H](Nc1ncnc2sc(-c3ccc(CN4CCNCC4)cc3)cc12)c1ccccc1` ; wanted: its IC50
0.6

* * *

Assayed system: Epidermal growth factor receptor (Homo sapiens)
Experiment notes: Inhibition of EGFR (unknown origin) after 40 mins by scintillation proximity assay
Quantity name: pIC50
Quick note: pIC50 values are minus log10 of concentrations in mol/L.

Consider the compound shown here: Fc1cccc(COc2ccc(Nc3ncnc4sc(C#CC5CCCN5)cc34)cc2Cl)c1 (stereo unspecified) What is its recorded pIC50?
6.96
